meta.source: patent US20230028110A1

Target: T1, Vδ1 chain of the γδ TCR on human Vδ1 γδ T cells (human)
T1 construct: whole, on cells; also called cell surface Vδ1 TCR; Vδ1-positive γδ T cells
T1 sequence (A0A1B0GX56 22-115, stated change not applied): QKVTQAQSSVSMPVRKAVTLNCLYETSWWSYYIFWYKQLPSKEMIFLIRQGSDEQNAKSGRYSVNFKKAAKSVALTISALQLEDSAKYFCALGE
Experiment: flow cytometry binding to Vδ1 γδ T cells, donor ATS006; column head printed 'IC50', unit nM from the chart axis and FIG. 34D
Answer each item with its documented pEC50.
Answers are plain numbers, as −log10 of the molar value.

Previously resolved entries follow.
ADT1-7-61 (antibody, IgG1, V domains shown, IgG1) VH: EVQLVESGGGLVKPGGSLRLSCAASGFTFSDYYMSWIRQAPGKGLEWVSYISSSGSTIYYADSVKGRFTISRDNAKNSLYLQMNSLRAEDTAVYYCARDDYDDAFDIWGQGTLVTVSS VL: DIQMTQSPSSLSASVGDRVTIACRAGQSIGTYLNWYQQKPGKAPKLLIYVASSLQSGVPSRFSGSGSGTEFTLTISSLQPEDFATYYCQQSASELLTFGRGTKVEIK	7.03
1245_P02_G04 (antibody, IgG1, V domains shown, also called ADT1-4; parental ADT1-4) VH: QVQLQQSGPGLVKPSQTLSLTCAISGDSVSSKSAAWNWIRQSPSRGLEWLGRTYYRSKWSTDYAASVKSRITINPDTSKNQLSLQLNSVTPEDTAVYYCARTWSGYVDVWGQGTLVTVSS VL: DIQMTQSPPALSASVGDRVTITCRASQDINDWLAWYQHKPGKAPKLLIYDASSLESGVPSRFSGSGSGTEFTLTISSLQPDDFATYYCQQSYSTPQVTFGQGTRLEIK	6.97

Provide pEC50 values for the following items, in order.
1. ADT1-7-20 (antibody, IgG1, V domains shown, IgG1) VH: EVQLVESGGGLVKPGGSLRLSCAASGFTFSDYYMSWIRQAPGKGLEWVSYISSSGSTIYYADSVKGRFTISRDNAKNSLYLQMNSLRAEDTAVYYCARVDYQEAFDIWGQGTLVTVSS VL: DIQMTQSPSSLSASVGDRVTIACRAGQSIGTYLNWYQQKPGKAPKLLIYVASSLQSGVPSRFSGSGSGTEFTLTISSLQPEDFATYYCQQSYSGLDTFGRGTKVEIK
2. ADT1-7-3 (antibody, IgG1, V domains shown, IgG1) VH: EVQLVESGGGLVKPGGSLRLSCAASGFTFSDYYMSWIRQAPGKGLEWVSYISSSGSTIYYADSVKGRFTISRDNAKNSLYLQMNSLRAEDTAVYYCARVSYAEAFDIWGQGTLVTVSS VL: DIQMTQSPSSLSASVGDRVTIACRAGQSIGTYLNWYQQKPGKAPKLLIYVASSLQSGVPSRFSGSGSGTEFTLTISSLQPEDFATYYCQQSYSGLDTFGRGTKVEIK

Response:
7.43
8.29
